Target: T1, recombinant human RON SEMA and PSI domains (human, UniProt Q04912 25-571)
T1 construct: domain: SEMA+PSI; Commercial protein (R&D Systems); also called rhRON SEMA+PSI; hRON SEMA+PSI
Experiment: SPR, Ab captured on anti-human IgG Fc, 37 C, screening
Method: Goat anti-human IgG Fc (Jackson ImmunoResearch, Catalog No. 109-005-098) was immobilized on carboxymethylated dextran CM4 sensor chips (Biacore) by amine coupling (Biacore) using a standard coupling protocol according to the vendor's instructions. […] The antibodies were captured in individual flow cells at a flow rate of 60 μl/minute. […] The dissociation phase was monitored for up to 1200 seconds. […]
Would you mind telling me the reported Kd of each entry?
Write the numeric value and follow it with the unit.

Kd measured on Sh07F01-69 (antibody, human IgG1, kappa, V domains shown, Humanized, human IgG1/kappa: Sh07F01 Hv3-48 IgG1 + Sh07F01 Kv1-9 F1 Kappa) VH: EVQLVESGGGLVQPGGSLRLSCAASGFDFSRHWMSWVRQAPGKGLEWVSEINPDSRTINYTPSLKERFTISRDNAKNSLYLQMNSLRAEDTAVYYCARRVRIHYYGAMDSWGQGTTVTVSS VL: DIQLTQSPSFLSASVGDRVTITCRASQNVGSSLVWYQQKPGKAPKTLIYSASFLYSGVPSRFSGSGSGTEFTLTISSLQPEDFATYYCQQYNNYPLTFGGGTKVEIKR = 0.56 nM

Kd measured on Sh07F01-62 (antibody, human IgG1, kappa, V domains shown, Humanized, human IgG1/kappa: Sh07F01 Hv3-48 D28T T60A L63V E65G IgG1 + HE L 07F01 Kv1-9 Kappa) VH: EVQLVESGGGLVQPGGSLRLSCAASGFTFSRHWMSWVRQAPGKGLEWVSEINPDSRTINYAPSVKGRFTISRDNAKNSLYLQMNSLRAEDTAVYYCARRVRIHYYGAMDSWGQGTTVTVSS VL: DIQLTQSQSFVSTSVGDRVTVTCRASQNVGSSLVWYQQKPGKSPKTLIYSASFLYSGVPSRFSGSGSGTEFTLTISSVQPEDFADYFCQQYNNYPLTFGGGTKVEIKR = 0.36 nM

Kd measured on Sh29B06-9 (antibody, human IgG1, kappa, V domains shown, Chimeric 29B06 Heavy IgG1 + Sh29B06 Kv2-28 Kappa) VH: EVQLQESGPSLVKPSQTLSLTCSVTGDSITSGYWNWIRKFPGNKLEYMGYISYSGKTYYNPSLKSRISITRDTSKNHYYLQLISVTAEDTATYYCARSKYDYAMDYWGQGTSVTVSS VL: DIVMTQSPLSLPVTPGEPASISCRASEIVDNFGISFMNWYLQKPGQSPQLLIYAASNQGSGVPDRFSGSGSGTDFTLKISRVEAEDVGVYYCQQSKEVPPTFGGGTKVEIKR = 0.26 nM
